Cited source for all entries: patent US12624112

Target: Human ST2-fc (human) (UniProt Q01638)
Assay: competition ELISA, coated ST2-fc, competitor IL33-his
Listed below: Relative activity (%) compared with CNTO7160 values for each entry.
The reply should be a number in %, with the unit left off.

5887-41H+L (antibody, V domains shown, murine antibody) VH: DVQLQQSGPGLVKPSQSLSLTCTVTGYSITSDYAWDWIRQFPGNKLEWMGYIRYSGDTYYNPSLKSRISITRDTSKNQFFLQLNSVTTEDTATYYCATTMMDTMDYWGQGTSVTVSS VL: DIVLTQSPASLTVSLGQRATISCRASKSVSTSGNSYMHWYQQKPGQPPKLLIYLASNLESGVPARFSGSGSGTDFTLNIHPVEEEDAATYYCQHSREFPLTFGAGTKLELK | 82.7
5888-116H1+L1 (antibody, V domains shown, murine antibody) VH: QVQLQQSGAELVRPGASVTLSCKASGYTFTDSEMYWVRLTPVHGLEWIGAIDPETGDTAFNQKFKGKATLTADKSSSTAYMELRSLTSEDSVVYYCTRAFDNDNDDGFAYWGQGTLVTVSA VL: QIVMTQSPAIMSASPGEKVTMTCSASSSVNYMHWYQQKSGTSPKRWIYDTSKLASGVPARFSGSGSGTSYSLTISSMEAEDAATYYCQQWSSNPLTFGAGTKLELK | 65.2
5888-153H1+L2 (antibody, V domains shown, murine antibody) VH: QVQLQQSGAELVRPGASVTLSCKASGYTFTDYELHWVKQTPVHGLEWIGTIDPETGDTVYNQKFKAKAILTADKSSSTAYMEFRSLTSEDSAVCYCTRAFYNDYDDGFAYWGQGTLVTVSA VL: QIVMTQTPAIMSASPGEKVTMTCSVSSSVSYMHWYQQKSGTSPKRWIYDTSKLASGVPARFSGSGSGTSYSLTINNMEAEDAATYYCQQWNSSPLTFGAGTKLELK | 78.4

In the following, a different binder is considered.
Form field: reported Relative activity (%) compared with CNTO7160 of 5888-379H1+L2 (antibody, V domains shown, murine antibody) VH: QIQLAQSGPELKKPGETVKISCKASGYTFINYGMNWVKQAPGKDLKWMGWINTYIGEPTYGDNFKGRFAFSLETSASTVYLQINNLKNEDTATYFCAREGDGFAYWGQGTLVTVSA VL: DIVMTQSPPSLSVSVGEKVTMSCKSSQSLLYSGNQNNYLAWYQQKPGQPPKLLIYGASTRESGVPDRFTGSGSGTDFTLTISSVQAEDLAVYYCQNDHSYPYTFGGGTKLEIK
70.1
